Data origin, for the record: paper PMC7253723

Test system: Pseudomonas aeruginosa (PA01)
Assay type: cell-based
Details: PA01; MH broth microdilution (CLSI M07-A10), ~5 × 10^5 CFU/mL, overnight 37°C, OD 600 nm; MIC = concentration with OD halfway between minimum and maximum, sigmoidal fit ± SD, n = 3 or more; maximum tested 100 μM
Square brackets hold non-standard residues; d marks the D form. Peptide text beside a SMILES is read from it. * marks the point of attachment. N(1-naphthylmethyl)Gly = O=C(O)CNCc1cccc2ccccc12; N(4-MeBn)Gly = Cc1ccc(CNCC(=O)O)cc1; Nspe = C[C@H](NCC(=O)O)c1ccccc1; Nonanoyl = CCCCCCCCC(=O)*; AEEA = NCCOCCOCC(=O)O; NBuGly = CCCCNCC(=O)O; Nlys = NCCCCNCC(=O)O
Items are presented alongside their recorded Antimicrobial activity (MIC) P. aeruginosa.
The answer is to be given in µM; state only the numeric part.

{"compound": "CCCCCCCCC(=O)NCCOCCOCC(=O)N(CC(=O)N(CCCCN)CC(=O)N(CC(=O)N(CCCCN)CC(=O)N(CC(=O)N(CCCCN)CC(=O)N(CCCC)CC(=O)N(CCCCN)CC(N)=O)Cc1cccc2ccccc12)Cc1ccc(C)cc1)Cc1cccc2ccccc12 [C8-EG2-kykbk] ({Nonanoyl-AEEA}-[N(1-naphthylmethyl)Gly][Nlys][N(4-MeBn)Gly][Nlys][N(1-naphthylmethyl)Gly][Nlys][NBuGly][Nlys]-NH2)", "reading unit": "µM", "observed": 15}

Now, please, on to the next compound.
# query: Antimicrobial activity (MIC) P. aeruginosa of entry CCCCCCCCC(=O)NCCOCCOCC(=O)N(CCCCN)CC(=O)N(CC(=O)N(CC(=O)N(CCCCN)CC(=O)N(CC(=O)N(CC(=O)N(CCCCN)CC(=O)N(CC(=O)N(CC(=O)N(CCCCN)CC(=O)N(CCCCN)CC(N)=O)[C@@H](C)c1ccccc1)[C@@H](C)c1ccccc1)[C@@H](C)c1ccccc1)[C@@H](C)c1ccccc1)[C@@H](C)c1ccccc1)[C@@H](C)c1ccccc1 [C8-EG2-(kss)3-kk] ({Nonanoyl-AEEA}-[Nlys][Nspe][Nspe][Nlys][Nspe][Nspe][Nlys][Nspe][Nspe][Nlys][Nlys]-NH2) 6

----------
Items are presented alongside their recorded CAC.
Assay: Critical aggregation concentration (CAC) Nile red fluorescence assay
Format: physicochemical
Conditions: Nile red fluorescence (~10 nM NR in water), lipopeptoids 2.5 × 10^-2 to 1 wt.%, excitation 552 nm, peak around 610 nm, room temperature; inflection in emission intensity
Square brackets hold non-standard residues; d marks the D form. Peptide text beside a SMILES is read from it. * marks the point of attachment. N(1-naphthylmethyl)Gly = O=C(O)CNCc1cccc2ccccc12; N(4-MeBn)Gly = Cc1ccc(CNCC(=O)O)cc1; Palmitoyl = CCCCCCCCCCCCCCCC(=O)*; Nspe = C[C@H](NCC(=O)O)c1ccccc1; Nonanoyl = CCCCCCCCC(=O)*; AEEA = NCCOCCOCC(=O)O; NBuGly = CCCCNCC(=O)O; Nlys = NCCCCNCC(=O)O
The answer is to be given in µM; state only the numeric part.

{"compound": "CCCCCCCCCCCCCCCC(=O)NCCOCCOCC(=O)N(CC(=O)N(CC(=O)N(CC(=O)N(CCCC)CC(=O)N(CCCCN)CC(=O)N(CCCCN)CC(=O)N(CCCCN)CC(=O)N(CCCCN)CC(=O)N(CCCCN)CC(N)=O)Cc1cccc2ccccc12)Cc1ccc(C)cc1)Cc1cccc2ccccc12 [C15-EG2-5k] ({Palmitoyl-AEEA}-[N(1-naphthylmethyl)Gly][N(4-MeBn)Gly][N(1-naphthylmethyl)Gly][NBuGly][Nlys][Nlys][Nlys][Nlys][Nlys]-NH2)", "observed": 360}

# query: CAC of entry CCCCCCCCC(=O)NCCOCCOCC(=O)N(CCCCN)CC(=O)N(CC(=O)N(CC(=O)N(CCCCN)CC(=O)N(CC(=O)N(CC(=O)N(CCCCN)CC(=O)N(CCCCN)CC(N)=O)[C@@H](C)c1ccccc1)[C@@H](C)c1ccccc1)[C@@H](C)c1ccccc1)[C@@H](C)c1ccccc1 [C8-EG2-(kss)2-kk] ({Nonanoyl-AEEA}-[Nlys][Nspe][Nspe][Nlys][Nspe][Nspe][Nlys][Nlys]-NH2) 200
